METHOD_SUMMARY: NCI Yeast Anticancer Drug Screen. Data for the wt2 strain (AID 169)
TEST_SETTINGS: S. cerevisiae wt2 strain growth inhibition; at 11.0 µM
This is part of a sample that, as a whole, favours compounds with a hit. Of some 79,000 tested, about 15% had one in any assay. Calls of active or inactive are those of the source. Rule as the data show it: active = growth inhibition above about 70%; inactive = the rest.
Output constraint: value belongs to T for active, F for inactive

input: Would you mind telling me which call this test gave COc1ccc(NC(=S)N/N=C(\c2ccccc2)c2ccccn2)cc1 ?
output: F

input: Would you mind telling me which call this test gave CCOC(=O)C1=C(C(=O)c2ccccc2)C(c2ccccc2[N+](=O)[O-])C(C(=O)c2ccccc2)=C(C(=O)OCC)N1 ?
output: F

input: Would you mind telling me which call this test gave O=C(O)c1ccccc1NC(=S)c1ccccc1 ?
output: F

input: Would you mind telling me which call this test gave COc1cc(C2SCC(=O)N2c2nnc(C(F)(F)F)s2)cc(OC)c1OC (stereo unspecified) ?
output: F

input: Would you mind telling me which call this test gave O=C(c1cc(Br)ccc1O)c1cc(Br)ccc1O ?
output: T

input: Would you mind telling me which call this test gave CC(CC(C)(C)[N+](C)(C)C)[N+](C)(C)C (stereo unspecified) ?
output: F
